Test system: AD38 cells
Test: Viability of AD38 cells (Promega CellTiter-Glo) at the end of compound treatment
Type: cell-based
Details: 10 μM compound, 6 days, luminescence normalized against DMSO control wells (controls being 100%)
Tick Fulfilled if AD38 Viability Normalized Result (CPAM/DMSO %) at 10 μM is 90% or greater. Tick Not fulfilled if AD38 Viability Normalized Result (CPAM/DMSO %) at 10 μM is less than 90%.

Some solved entries appear below for comparison.
| MOLECULE | TARGET | CLASS LABEL |
| --- | --- | --- |
| O=C(NCc1cccnc1)c1ccc2c(c1)NC(=O)c1cccc(F)c1S2 | AD38 cells | Not fulfilled |
| O=C(NCCc1cccc(OC(F)(F)F)c1)c1ccc2c(c1)NC(=O)c1ccccc1S2 | AD38 cells | Not fulfilled |
| CN(C)C(=O)c1ccc2c(c1)Sc1ccc(C(=O)NCCc3ccccc3)cc1NC2=O | AD38 cells | Not fulfilled |
| O=C(NCCC1CCOCC1)c1ccc2c(c1)NC(=O)c1ccccc1S2 | AD38 cells | Fulfilled |
| O=C1Nc2cc(S(=O)(=O)Nc3ccccc3)ccc2Sc2ccccc21 | AD38 cells | Not fulfilled |

Ask: Exam item: decide whether the reported AD38 Viability Normalized Result (CPAM/DMSO %) at 10 μM for C[C@H](O)CNC(=O)c1ccc2c(c1)NC(=O)c1ccccc1S2 is at least 90%.
Result: Fulfilled

Ask: Exam item: decide whether the reported AD38 Viability Normalized Result (CPAM/DMSO %) at 10 μM for O=C(NC(CO)Cc1cncnc1)c1ccc2c(c1)NC(=O)c1cc(F)ccc1S2 (centres unmarked) is at least 90%.
Result: Fulfilled

Ask: Exam item: decide whether the reported AD38 Viability Normalized Result (CPAM/DMSO %) at 10 μM for O=C(NCCc1ccc(-n2cnnc2)cc1)c1ccc2c(c1)NC(=O)c1ccccc1S2 is at least 90%.
Result: Fulfilled
